These measurements were taken from BindingDB's records for doi:10.1016/j.bmcl.2008.01.016.

experiment: Antagonist activity at human CCR2 assessed as inhibition of MCP1-induced monocyte chemotaxis
ENDPOINT: IC50 (nM)

[
  {
    "MOL SMILES": "C[C@H]1CN([C@@H]2CC[C@@]3(CCO[C@H]3OCc3cc(F)cc(C(F)(F)F)c3)C2)CC[C@@]12C=Cc1ccccc12",
    "MEASURED": 2.5
  }
]
